Recorded values, source ChEMBL document CHEMBL1140675.

method: Plasma clearance in dog at 0.38 mg/kg, iv or 1.5 mg/kg, po
Assay type: ADME, organism-based, Canis lupus familiaris
assayReadout: clearance
Could you write the number and then its unit?

Lookup: If you can, please state the reported clearance value of `CC(C)N1C(=O)[C@H](NC(=O)[C@@H](Cc2ccccc2OC(F)(F)F)NC(=O)OC(C)(C)C)CCc2ccccc21` .
Found: 15 mL/min/kg

###

measuredOn: Sodium channel protein type 9 subunit alpha (Homo sapiens)
Sequence (Q15858 whole entry): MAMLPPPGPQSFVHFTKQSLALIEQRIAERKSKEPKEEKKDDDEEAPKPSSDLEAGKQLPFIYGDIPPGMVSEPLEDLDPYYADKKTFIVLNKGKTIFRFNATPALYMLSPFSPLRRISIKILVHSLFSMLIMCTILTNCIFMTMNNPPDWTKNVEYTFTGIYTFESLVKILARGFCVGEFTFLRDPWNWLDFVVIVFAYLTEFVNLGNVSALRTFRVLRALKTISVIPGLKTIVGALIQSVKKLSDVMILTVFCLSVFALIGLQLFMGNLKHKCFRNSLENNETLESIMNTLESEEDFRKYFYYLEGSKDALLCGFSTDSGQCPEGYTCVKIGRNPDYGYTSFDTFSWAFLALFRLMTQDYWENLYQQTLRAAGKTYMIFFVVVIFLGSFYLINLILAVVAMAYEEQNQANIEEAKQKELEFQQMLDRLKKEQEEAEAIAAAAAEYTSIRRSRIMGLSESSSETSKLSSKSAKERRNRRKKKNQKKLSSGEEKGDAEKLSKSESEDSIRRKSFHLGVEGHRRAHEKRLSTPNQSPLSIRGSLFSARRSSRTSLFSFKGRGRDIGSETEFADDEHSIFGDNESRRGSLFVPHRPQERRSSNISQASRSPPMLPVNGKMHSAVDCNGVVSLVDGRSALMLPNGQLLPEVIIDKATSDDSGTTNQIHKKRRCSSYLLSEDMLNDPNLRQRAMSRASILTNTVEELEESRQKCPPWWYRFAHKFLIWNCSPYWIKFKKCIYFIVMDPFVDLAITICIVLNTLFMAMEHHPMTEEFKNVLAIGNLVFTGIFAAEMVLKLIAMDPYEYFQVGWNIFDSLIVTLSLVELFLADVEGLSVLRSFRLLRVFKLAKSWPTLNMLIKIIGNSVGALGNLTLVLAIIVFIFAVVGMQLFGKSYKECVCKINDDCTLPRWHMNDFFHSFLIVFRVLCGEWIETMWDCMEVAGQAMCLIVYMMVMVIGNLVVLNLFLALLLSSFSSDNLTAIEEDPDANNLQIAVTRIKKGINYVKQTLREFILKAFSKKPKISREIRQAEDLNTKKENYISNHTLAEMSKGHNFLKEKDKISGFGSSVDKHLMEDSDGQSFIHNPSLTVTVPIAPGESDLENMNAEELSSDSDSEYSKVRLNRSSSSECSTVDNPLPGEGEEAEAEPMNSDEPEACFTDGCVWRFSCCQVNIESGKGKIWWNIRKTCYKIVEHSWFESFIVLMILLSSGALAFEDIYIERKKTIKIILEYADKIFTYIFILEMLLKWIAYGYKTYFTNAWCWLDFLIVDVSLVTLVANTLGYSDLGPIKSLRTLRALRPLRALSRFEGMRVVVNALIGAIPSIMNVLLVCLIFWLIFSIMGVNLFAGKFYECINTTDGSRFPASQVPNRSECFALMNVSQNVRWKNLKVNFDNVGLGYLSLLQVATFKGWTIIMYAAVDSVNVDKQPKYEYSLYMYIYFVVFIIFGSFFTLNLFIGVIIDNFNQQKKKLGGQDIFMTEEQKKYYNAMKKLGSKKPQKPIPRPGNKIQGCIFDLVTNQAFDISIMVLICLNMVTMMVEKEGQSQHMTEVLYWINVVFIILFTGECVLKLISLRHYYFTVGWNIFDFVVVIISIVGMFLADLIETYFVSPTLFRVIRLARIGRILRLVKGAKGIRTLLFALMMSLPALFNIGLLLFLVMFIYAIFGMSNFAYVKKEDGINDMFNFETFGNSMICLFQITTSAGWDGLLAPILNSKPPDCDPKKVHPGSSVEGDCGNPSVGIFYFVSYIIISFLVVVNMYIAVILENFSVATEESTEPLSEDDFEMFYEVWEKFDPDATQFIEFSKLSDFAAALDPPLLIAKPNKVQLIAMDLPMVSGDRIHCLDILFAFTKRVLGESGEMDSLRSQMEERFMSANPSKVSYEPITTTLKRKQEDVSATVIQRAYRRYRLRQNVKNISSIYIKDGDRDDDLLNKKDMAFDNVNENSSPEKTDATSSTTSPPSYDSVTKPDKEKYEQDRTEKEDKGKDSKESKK
method: Blockade of human Nav1.7 by FRET assay
Give measured IC50 for each item. Keep answers brief.
Please state the figure in nM; there is no need to write the unit.

Lookup: Test system Sodium channel protein type 9 subunit alpha (Homo sapiens); read-out IC50; what value for `CC(C)N1C(=O)[C@H](NC(=O)[C@@H](Cc2cccc(C(F)(F)F)c2)NC(=O)OC(C)(C)C)CCc2ccccc21` ?
Found: 295

Lookup: Test system Sodium channel protein type 9 subunit alpha (Homo sapiens); read-out IC50; what value for `CC(C)N1C(=O)[C@H](NC(=O)[C@@H](Cc2c(F)cccc2C(F)(F)F)NC(=O)OC(C)(C)C)CCc2ccccc21` ?
Found: 32

Lookup: Test system Sodium channel protein type 9 subunit alpha (Homo sapiens); read-out IC50; what value for `CC(C)(C)OC(=O)N[C@H](Cc1ccccc1)C(=O)N[C@@H]1CCc2ccccc2N(CC(F)(F)F)C1` ?
Found: 145
